Kindly state pIC50 for each of the entries shown.
target.or.system: LspMrs G54A (Staphylococcus aureus, UniProt Q6GHN9, G54A)
Construct: MGSS-hexahistidine-SSGR-TEV site (ENLYFQ) (N, cleaved yes)
measurement.description: Gel-shift peptidase assay, LspMrs G54A mutant
Numbers only, as −log10 of the molar value.

molecule	target.or.system	pIC50
CCCC1OC(=O)C(C)CC(C)CCCCC(=O)CCCC(CC)C=CC=C(COC)CCC(O)C(O)CC(O)CNC1=O (centres unmarked) [myxovirescin, myxovirescin A1]	LspMrs G54A (Staphylococcus aureus, UniProt Q6GHN9, G54A)	6.24

# ---- query molecule ----
Lookup: # query: pIC50 of entry CCCCCC[C@H]1OC(=O)CNC(=O)[C@H]([C@H](C)O)NC(=O)[C@H](CO)NC(=O)[C@H]([C@H](C)CC)NC(=O)[C@H](CC(C)C)N(C)C(=O)[C@@H]1C [globomycin]
Found: 5.75

All values here come from paper PMC6952399.
